System: KM12 colon
Test: NCI-60 one-dose screen, 48 h (100 = growth as untreated, 0 = no growth, -100 = all killed)
Details: 10 µM unless noted
This is part of a sample that, as a whole, favours compounds with a hit. Of some 83,000 tested, about 20% had one in any assay.
Binary call on growth: y from 30% upward, n beneath that.

Quick check, growth >= 30%? NCCOc1ncccc1/C=C1\c2ccccc2-c2ccc([N+](=O)[O-])cc21
n

Quick check, growth >= 30%? O=C1c2ccccc2C(=O)c2c1ccc1[nH]c(CCl)nc21
n

Quick check, growth >= 30%? COc1ccc2occ(C3=C(c4c[nH]c5ccccc45)C(=O)NC3=O)c2c1
n

Quick check, growth >= 30%? O=C(Nc1ccccc1O)c1ccc(Oc2cccc(C(=O)Nc3ccccc3O)c2)cc1
n

Quick check, growth >= 30%? COc1ccc(C(O)(CCC(C)C)C(CN2CCOCC2)c2ccc(Cl)cc2)cc1 (stereo not drawn)
y

Quick check, growth >= 30%? CCOC(=O)C(CC(=O)O)=C(C(=O)OCC)C(=O)OCC
y

Quick check, growth >= 30%? COC(=O)[C@@H]1CCCN1C(=O)[C@H]1CCCN1C(=O)[C@@H](Cc1c[nH]c2ccccc12)NC(=S)Nc1cc(C(F)(F)F)cc(C(F)(F)F)c1
y

Quick check, growth >= 30%? Cc1ccc2[nH]c(=O)cc(-n3nncc3Cn3c4ccccc4c4ccccc43)c2c1
y

Quick check, growth >= 30%? COc1ccc2sc(N(Cc3cccnc3)C(=O)c3ccc(C#N)cc3)nc2c1
y

Quick check, growth >= 30%? Cn1c(/C=C(\C#N)c2cccc(C(F)(F)F)c2)nc2c(N3CCOCC3)nc(Cl)nc21
n

Quick check, growth >= 30%? Cc1cc(OC(=O)c2ccc([N+](=O)[O-])cc2)nc2[nH]c(=O)sc12
y

Quick check, growth >= 30%? COc1cc(C(=O)Nc2ccc(-c3nc4ccccc4[nH]3)cc2)cc(OC)c1OC
y

Quick check, growth >= 30%? Cc1nc(Nc2ccccn2)sc1C(=O)/C=C/c1ccc(Cl)cc1
n

Quick check, growth >= 30%? COc1cc(C#N)cc2[nH]c(=O)oc12
y

Quick check, growth >= 30%? COc1cc2nc(NC3CCC3)nc(NC3CCN(C(C)C)CC3)c2cc1OC
y

Quick check, growth >= 30%? COc1cc(C(C)n2cc(-c3ccccc3)nn2)ccc1OC1CCCC1 (stereo not drawn)
y

Quick check, growth >= 30%? COC(=O)[C@H](NC(=O)C1(C)CCC[C@]2(C)[C@H]3C[C@H]4C(C(C)C)=C[C@]3(CC[C@@H]12)[C@@H]1C(=O)CCC(=O)[C@@H]14)C(C)C (stereo partly drawn)
y

Quick check, growth >= 30%? COc1ccc(Cn2cc(Cn3cc(C=C4C(=O)NC(=O)NC4=O)c4ccccc43)nn2)cc1
y

Quick check, growth >= 30%? COC(=O)c1cc2c(n1Cc1ccccc1)-c1oncc1CCC2
y

Quick check, growth >= 30%? C=C[C@@H]1CCC/C=C/[C@@H]2C[C@H](O)C[C@H]2[C@H](O)/C=C/C(=O)O1
n

Quick check, growth >= 30%? COc1cc(/C(C#N)=C/c2nc3c(N4CCOCC4)nc(Cl)nc3n2C)cc(OC)c1OC
n

Quick check, growth >= 30%? CSc1nc2c(c(=O)[nH]1)N=C1c3ccccc3C(=O)C1C(c1ccccc1)N2 (stereo not drawn)
n

Quick check, growth >= 30%? O=C(NN1C(=O)CSC1c1ccc(Cl)cc1)c1[nH]c2ccc(F)cc2c1-c1ccccc1 (stereo not drawn)
y

Quick check, growth >= 30%? CCN(CC)c1cc(C)c2cc(NC(=O)c3cccc(OC)c3)ccc2n1
y

Quick check, growth >= 30%? CC[C@]1(O)C[C@@H]2CN(CCc3c([nH]c4ccccc34)[C@@](C(=O)OC)(c3cc4c(cc3OC)N(C)[C@H]3[C@@](O)(C(=O)OC)[C@H](OC(=O)CCCBr)[C@]5(CC)C=CCN6CC[C@]43[C@@H]65)C2)C1
n

Quick check, growth >= 30%? O=c1c(-c2nc3ccccc3[nH]2)cc2ccccc2n1Cc1cn(Cc2ccccc2Cl)nn1
y

Quick check, growth >= 30%? O=c1oc2ccc(-c3ccc(F)cc3F)cc2c(=O)n1-c1ccc(Cl)c(C(F)(F)F)c1
n

Quick check, growth >= 30%? COc1cc(/C=C2\CN(C)C/C(=C\c3cc(CN4CCCC4)c(O)c(OC)c3)C2=O)cc(CN2CCCC2)c1O
y

Quick check, growth >= 30%? COc1ccc(CCN2C(=O)CCSC2=S)cc1OC
n

Quick check, growth >= 30%? CC(=S)NC(=O)C(=O)/C=C1/NC(=O)C(=O)S1
y

Quick check, growth >= 30%? OC(c1ccccc1)c1nnc(SCc2ccccc2)n1Cc1ccccc1 (stereo not drawn)
y

Quick check, growth >= 30%? CNC(=O)c1cc(Oc2ccc(CC(=O)Nc3cc(C(C)(C)C)cn3C)cc2)ccn1
y

Quick check, growth >= 30%? S=C1CCCC(=S)N1
y

Quick check, growth >= 30%? Nc1no[n+]([O-])c1-c1nnc2c(n1)-c1ccccc1C2=O
y

Quick check, growth >= 30%? CCN1C(=O)N(CC)C2C1NN=c1s/c(=C3\C(=O)N(CC(C)(C)C)c4ccccc43)c(=O)n12 (stereo not drawn)
n

Quick check, growth >= 30%? CCN(CCO)CCNc1ccc(C)c2sc3cc(Cl)ccc3c(=O)c12
n

Quick check, growth >= 30%? CCN1C(=O)N(CC)C2Nn3c(s/c(=C\c4ccccc4F)c3=O)=NC21 (stereo not drawn)
n
